target: UniProt P52333; test: pIC50, kinobeads binding competition; conditions: cell material: Lysate mix
Sequence (P52333 whole entry): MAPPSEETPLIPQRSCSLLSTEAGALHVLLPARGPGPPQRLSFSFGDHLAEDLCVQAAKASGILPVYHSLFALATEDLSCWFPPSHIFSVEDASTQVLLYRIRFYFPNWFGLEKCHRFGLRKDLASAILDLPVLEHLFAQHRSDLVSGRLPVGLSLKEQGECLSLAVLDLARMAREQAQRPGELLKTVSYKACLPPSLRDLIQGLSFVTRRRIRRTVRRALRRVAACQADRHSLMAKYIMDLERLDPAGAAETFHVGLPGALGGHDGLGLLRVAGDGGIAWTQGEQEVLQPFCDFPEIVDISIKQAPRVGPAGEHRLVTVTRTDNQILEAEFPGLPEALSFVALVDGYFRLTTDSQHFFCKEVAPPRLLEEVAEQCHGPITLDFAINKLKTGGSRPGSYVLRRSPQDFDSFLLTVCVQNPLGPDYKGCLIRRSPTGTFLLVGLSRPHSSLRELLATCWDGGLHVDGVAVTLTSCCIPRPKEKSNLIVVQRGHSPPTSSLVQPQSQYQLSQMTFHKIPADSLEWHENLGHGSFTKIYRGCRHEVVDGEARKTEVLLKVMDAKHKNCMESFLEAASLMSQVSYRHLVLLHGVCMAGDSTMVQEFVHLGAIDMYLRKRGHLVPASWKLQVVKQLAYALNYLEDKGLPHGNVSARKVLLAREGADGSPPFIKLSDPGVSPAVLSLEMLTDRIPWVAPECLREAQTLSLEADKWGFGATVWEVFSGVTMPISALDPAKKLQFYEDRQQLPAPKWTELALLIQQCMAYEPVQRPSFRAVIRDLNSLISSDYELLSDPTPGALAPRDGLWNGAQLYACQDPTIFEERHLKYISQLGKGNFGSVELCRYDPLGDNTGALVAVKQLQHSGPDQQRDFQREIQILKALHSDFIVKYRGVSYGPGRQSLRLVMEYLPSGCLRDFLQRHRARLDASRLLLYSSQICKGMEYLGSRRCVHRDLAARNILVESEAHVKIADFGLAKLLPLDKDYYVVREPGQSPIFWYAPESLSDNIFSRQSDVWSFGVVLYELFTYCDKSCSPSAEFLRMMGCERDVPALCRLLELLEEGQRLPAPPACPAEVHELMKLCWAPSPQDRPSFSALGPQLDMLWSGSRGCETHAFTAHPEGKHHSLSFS
reported metric: pIC50

CCNC(=O)c1cc(Nc2cc(C)[nH]n2)nc(N2CCN(Cc3ccc(S(=O)(=O)F)cc3)CC2)n1 ... 5.89
C#CCNC(=O)c1cc(Nc2cc(C)[nH]n2)nc(N2CCN(Cc3ccc(S(=O)(=O)F)cc3)CC2)n1 ... 5.7
C#CCNC(=O)c1cc(Nc2cc(C3CC3)[nH]n2)nc(N2CCN(Cc3ccc(S(=O)(=O)F)cc3)CC2)n1 ... 6.08

Problem: Which pIC50 value belongs to Cc1cc(Nc2cc(C(=O)NCCNC(=O)OC3CC/C=C/CCC3)nc(N3CCN(Cc4ccc(S(=O)(=O)F)cc4)CC3)n2)n[nH]1 (stereo unspecified) ?
Result: < 4.52

Problem: What value of measured pIC50 is listed for O=C(NCCNC(=O)c1cc(Nc2cc(C3CC3)[nH]n2)nc(N2CCN(Cc3ccc(S(=O)(=O)F)cc3)CC2)n1)OC1CC/C=C/CCC1 (stereo unspecified) ?
Result: < 4.52

Problem: Entry CCNC(=O)c1cc(Nc2cc(C3CC3)[nH]n2)nc(N2CCN(Cc3ccc(S(=O)(=O)F)cc3)CC2)n1 has what pIC50?
Result: 5.97
